# System: Escherichia coli
# experiment_description: Antibacterial activity against Escherichia coli ATCC 25922 (CO-ADD:GN_001); MIC in CAMBH media using NBS plates, by Resazurin F(560/590)
# Type: functional
# measurement_context: Concentration 20 uM, ASSAY_TEST Inhibition of Bacterial Growth, detection method Resazurin, Fluorescence (ex560/em590), MEDIA CAMHB, plate type 384well, CORNING #3640, time 18 hr
Kindly supply the reported Inhibition values for the records listed here.
One number for each entry, in %.

Before answering, review these 5 worked examples.
COc1cccc2c1C(=O)c1c(O)c3c(c(O)c1C2=O)C[C@@](O)(/C(C)=N\O)C[C@@H]3OC1CC(N)C(O)C(C)O1.Cl (stereo partly drawn); 2.23
[Cl-].c1ccc(-c2nn(-c3ccccc3)[n+](-c3ccccc3)n2)cc1; 7.25
O=C(Oc1ccccc1)N(c1ccccc1)c1ccccc1; 9.21
CCN1CCc2ccccc2C1; 15.08
CCN1CC2C3CCC(C)(O3)C2C1 (stereo not drawn); 12.74

Give one value of Inhibition per listed molecule.
1. CSc1nc(=O)c(/N=N/c2ccc([As](=O)(O)O)cc2)c(N)[nH]1
2. COc1cc2c(cc1O)CC1c3c(cc(O)c(OC)c3-2)CCN1C (stereo not drawn)
3. O=C1N(c2nncs2)CCN1[N+](=O)[O-]

1. 7.88
2. 10.6
3. 7.74

Dear reader, for each entry below, please note its Inhibition.
1. CCOP(=O)(OCC)/C(C#N)=C/c1ccc(Br)cc1
2. CC(Cc1ccccc1)NC(N)=O (stereo not drawn)
3. NC(=O)c1ccc(C(=O)Nc2ccc([As](=O)(O)O)cc2)cc1
4. COc1ccc2c(c1)C13CCN(C)C(C2)C1CCC1(C3)OCCO1 (stereo not drawn)

[8.82, 14.19, 15.44, 9.14]

Hi there! I need Inhibition for each item below, if you can.
1. N=C(N)N/N=C/c1c(Cl)cccc1Cl
2. Cc1cc(OCCN2CC2)c2ccccc2n1

13.45
11.83

Please look at the items below and tell me Inhibition for each one, in order.
1. CN1CCC2(O)OCCCC2C1 (stereo not drawn)
2. C=CCNC(=S)Nc1ccc(OC(=O)Nc2ccc(Cl)c(Cl)c2)cc1
3. O=C(OC1CCCCC1)c1ccccc1C(=O)OC1CCCCC1
4. CS(=O)(=O)O.O=C1CCC2(O)[C@@H]3Cc4ccc(O)c5c4[C@]2(CCN3Cc2ccoc2)C1O5 (stereo partly drawn)
5. CC(=O)Nc1cc([As](=O)(O)O)ccc1O

3.03
5.81
-0.16
-2.68
0.28

----------
Would you mind telling me the reported Inhibition of each entry?
# Test system: Escherichia coli
# experiment_description: Antibacterial activity against Escherichia coli ATCC 25922 (CO-ADD:GN_001); MIC in CAMBH media using NBS plates, by Resazurin F(560/590)
# Type: functional
# measurement_context: Concentration 20 uM, ASSAY_TEST Inhibition of Bacterial Growth, detection method Resazurin, Fluorescence (ex560/em590), MEDIA CAMHB, plate type 384well, CORNING #3640, time 18 hr
Answers are plain numbers, in %.

Some solved entries appear below for comparison.
CC(=O)Nc1ccc([As](=O)(O)c2ccc([N+](=O)[O-])cc2)cc1; -3.43
CC(=O)Nc1cccc([As](=O)(c2cccc(NC(C)=O)c2)c2cccc(NC(C)=O)c2)c1; -5.49
CCOP(=O)(OCC)/C(C#N)=C/c1ccc(-c2ccc(F)cc2F)o1; 9.56
c1cc(C2N3CCCN2CC3)ccn1 (stereo unspecified); 15.45
O=[N+]([O-])c1cc(-c2ccc([As](=O)(O)O)cc2)ccc1[As](=O)(O)O; 9.73

Proceed to the following item.
// Input: O=P(OC1=CCCCC1)(c1ccccc1)c1ccccc1 . Output its Inhibition only.
6.17
